molecules and their reported T/C
Tested on: L1210 leukemia ip in BDF1 mice, survival T/C
experimental_protocol: NCI In Vivo Anticancer Drug Screen. Data for tumor model L1210 Leukemia (intraperitoneal) in B6D2F1 (BDF1) mice
condition_details: endpoint: mean survival time; dose: 200.0 mg/kg/injection; schedule: Q01DX001 (ip); vehicle: other; higher = longer survival
Toxic doses and inconclusive results are not listed.

With L1210 leukemia ip in BDF1 mice, survival T/C as the test system, `COc1ccc(C(=O)Nc2cc(Cl)ccc2OC)cc1` showed T/C of 93 % of control

With L1210 leukemia ip in BDF1 mice, survival T/C as the test system, `CCCCCCCCCCCCCCCCOC(=O)Cl` showed T/C of 90 % of control

With L1210 leukemia ip in BDF1 mice, survival T/C as the test system, `Nc1ccc(-c2ccc(N)c(Oc3ccccc3)c2)cc1Oc1ccccc1` showed T/C of 97 % of control

With L1210 leukemia ip in BDF1 mice, survival T/C as the test system, `Cc1ccc2[nH]c(C)c(C3=CC(=O)c4ccccc4C3=O)c2c1` showed T/C of 92 % of control

With L1210 leukemia ip in BDF1 mice, survival T/C as the test system, `O=C1c2cccc3cccc(c23)C(=O)N1O` showed T/C of 98 % of control

With L1210 leukemia ip in BDF1 mice, survival T/C as the test system, `NC(=O)Nc1cccc(C(=O)O)c1C(=O)O` showed T/C of 101 % of control

With L1210 leukemia ip in BDF1 mice, survival T/C as the test system, O=C(NCCCl)NC1CCS(=O)(=O)C1 (stereo unspecified) showed T/C of 98 % of control

With L1210 leukemia ip in BDF1 mice, survival T/C as the test system, `CCCC/C(=N/NC(N)=O)C(OC)OC` showed T/C of 86 % of control

With L1210 leukemia ip in BDF1 mice, survival T/C as the test system, `CC(=O)Nc1cc(Cl)ccc1C(=O)O` showed T/C of 98 % of control

With L1210 leukemia ip in BDF1 mice, survival T/C as the test system, c1cc(Sc2ccc(OCC3CO3)cc2)ccc1OCC1CO1 (stereo unspecified) showed T/C of 97 % of control

With L1210 leukemia ip in BDF1 mice, survival T/C as the test system, `CCN(CC)CCOc1cc(C)c2cc(Cc3ccccc3)ccc2n1` showed T/C of 96 % of control
